meta.source: paper PMC9352680

- targetUnderTest: T1, PUF4 RNA-binding domain (Saccharomyces cerevisiae, UniProt P25339 537-888)
- T1 sequence: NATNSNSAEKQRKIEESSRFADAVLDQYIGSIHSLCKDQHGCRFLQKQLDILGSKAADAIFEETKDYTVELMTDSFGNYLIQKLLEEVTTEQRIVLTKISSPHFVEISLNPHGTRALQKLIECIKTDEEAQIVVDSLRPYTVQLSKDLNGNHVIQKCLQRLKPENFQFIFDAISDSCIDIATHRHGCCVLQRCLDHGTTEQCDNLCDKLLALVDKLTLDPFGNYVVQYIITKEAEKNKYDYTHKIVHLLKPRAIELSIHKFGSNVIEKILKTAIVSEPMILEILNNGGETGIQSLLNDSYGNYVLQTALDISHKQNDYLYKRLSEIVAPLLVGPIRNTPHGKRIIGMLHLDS
- assayProtocol: Mg; RNA-MaP; 20 mM Na-HEPES pH 7.4, 30 mM KOAc, 0.75 mM MgCl2, 0.1% Tween-20, 5% glycerol, 0.1 mg/mL BSA, 2 mM DTT; 25 C; 0.0125-409.6 nM protein
- recordedConditions: tags: N-His6-TEV cleaved; C-SNAP kept, Cy3B-labelled; label: tethered on chip by stalled RNA polymerase
Sorting guide: entries reporting Kd beneath 80 nM go in the yes pile, the rest go in the no pile.

binder | groupLabel
Ic_S4_P4E.1_K4.1_C4.1_H4.1_A4.1_[T5C]_[T7A]_F4.1_[A9C]_T4.1 (ssRNA) RNA: UUUGACAACUGAUCGUUCUUUCUUGUACAAUCUUCUUUCUCGAUCAGUUGUCUUU | yes
UCUCUUUGUACCCGCGUCUCUU (ssRNA) [Ic_S1_P5E.1_K5.1_C5.1_H5.1_A5.1_[T5C]_[T6C]_[A7C]_F5.1_[T8G]_[T9C]_[A10G]_T5.1] | no
UCUCUUUGUAUUGCAUCUCUU (ssRNA) [Ic_S1_P4E.1_K4.1_C4.1_H4.1_A4.1_[A6T]_[T7G]_F4.1_[T8C]_T4.1] | no
Ic_S2_P5E.1_K5.1_C5.1_H5.1_A5.1_[T6C]_[A7T]_F5.1_[T8A]_[T9C]_[A10G]_T5.1 (ssRNA) RNA: UUUGAUUAAUAUGAUAUCGUUCUUUCUUGUAUCUACGUUCUUUCUCGAUAUCAUAUUAAUCUUU | yes
Ia_S2_P5E.1_K5.1_C5.1_H5.1_A5.1_[A7T]_F5.1_T5.1 (ssRNA) RNA: UUUGAUUAAUAUGAUAUCGUUCUUUCUUGUAUUUUUAUUCUUUCUCGAUAUCAUAUUAAUCUUU | yes
UCUCUUUGUAGUCUCUCUCUU (ssRNA) [Ic_S1_P4E.1_K4.1_C4.1_H4.1_A4.1_[T5G]_[A6T]_[T7C]_F4.1_[A9C]_T4.1] | no
Id_ii_S2_P5E.3_K5.2_C5.2_[C-2T]_[T-1A]_H5.2_A5.1_F5.1_T5.2_[T11C]_[A12T] (ssRNA) RNA: UUUGAUUAAUAUGAUAUCGUUCUUUCUUAUAUAUUAUUACUUUCUUUCUCGAUAUCAUAUUAAUCUUU | yes
Id_ii_S2_P5E.4_K5.3_C5.2_[C-2A]_[T-1A]_H5.3_A5.1_F5.1_T5.2_[A12C] (ssRNA) RNA: UUUGAUUAAUAUGAUAUCGUUCUUUCUAAACACUUAUUAUCUUCUUUCUCGAUAUCAUAUUAAUCUUU | no
Ic_S4_P4E.1_K4.1_C4.1_H4.1_A4.1_[T5A]_[A6C]_[T7C]_F4.1_[T8C]_[A9T]_T4.1 (ssRNA) RNA: UUUGACAACUGAUCGUUCUUUCUUGUAACCCUUUCUUUCUCGAUCAGUUGUCUUU | no
UCUCUUUGUAACAUGCUCUCUU (ssRNA) [Ic_S1_P5E.1_K5.1_C5.1_H5.1_A5.1_[T5A]_[T6C]_F5.1_[T9G]_[A10C]_T5.1] | yes
UCUCUUUGUAUUAUGUUCUCUU (ssRNA) [Ib_S1_P5E.1_K5.1_C5.1_H5.1_A5.1_F5.1_[T9G]_[A10T]_T5.1] | yes
ACAAACUGUAUUACUUUUAACAAAC (ssRNA) [Ie_S3_P5E.1_K5.1_C5.1_H5.1_A5.1_[+7CTT]_F5.1_T5.1] | no
UCUCUUGUUAUAUUAUUAAAUCUCUU (ssRNA) [Id_ii_S1_P5E.3_K5.2_C5.2_[C-2G]_H5.2_A5.1_F5.1_T5.2_[T11A]] | yes
Ie_S2_P5E.1_K5.1_C5.1_H5.1_A5.1_F5.1_[+8TTT]_T5.1 (ssRNA) RNA: UUUGAUUAAUAUGAUAUCGUUCUUUCUUGUAUUAUUUUUAUUCUUUCUCGAUAUCAUAUUAAUCUUU | yes
Ic_S2_P3E.1_K3.1_C3.1_H3.1_A3.1_[T5C]_[A6T]_F3.1_[T7A]_[A8G]_T3.1 (ssRNA) RNA: UUUGAUUAAUAUGAUAUCGUUCUUUCUUGUACUAGUUCUUUCUCGAUAUCAUAUUAAUCUUU | no
UCUCUUUUUAUAUAUUAAAUCUCUU (ssRNA) [Id_ii_S1_P4E.3_K4.2_C4.2_[C-2T]_H4.2_A4.1_F4.1_T4.2_[G10A]_[T11A]] | yes
